- Test system: SNB-75 CNS
- procedure.text: NCI tumour cell line growth inhibition, 48 h; in the data active means GI50 below about 0.43 µM; inactive means the rest
Allowed answers: active, inactive

Illustrative cases are given below, each with its answer.
Q) // param item: COc1cc(C(=O)O[C@H](C(=O)NCCCCNC(=O)[C@@H](OC(=O)c2cc(OC)cc3c(C)cccc23)[C@]2(C)CO2)[C@]2(C)CO2)c2cccc(C)c2c1 ; yields the recorded call
A) active

Q) // param item: Cn1c(I)c(C#C[Si](C)(C)C)c(=O)[nH]c1=O ; yields the recorded call
A) inactive

Q) // param item: CCC(=O)Nc1nnc(Cc2ccc(OC)c(OC)c2)s1 ; yields the recorded call
A) inactive

Q) // param item: Cc1cc(N2CCOCC2)nc(NCc2cc(Nc3ccnc4cc(Cl)ccc34)ccc2F)n1 ; yields the recorded call
A) inactive

Now for another entry.
Q) // param item: COc1cc(C2NC(=O)C(C#N)=C(Nc3cccc(C)c3)S2)ccc1O (stereo not given) ; yields the recorded call
A) inactive

* * *

Give TGI for every item shown.
- Tested on: HOP-92 NSCLC
- procedure.text: NCI tumour cell line growth inhibition, 48 h
Answers are plain numbers, in µM.

Guide cases for TGI, answers given:
Q) Returns the measured TGI for the input compound. Input: CC(=O)[CH-]C(=O)c1ccccc1.CC(=O)[CH-]C(=O)c1ccccc1.CC(=O)[CH-]C(=O)c1ccccc1.[Ga+3]
A) 51.9

Q) Returns the measured TGI for the input compound. Input: COc1ccc2nc3ccccc3c(NCCNCC(C)O)c2c1 (stereo not given)
A) 3.48

# context switch: different compound, same TGI
Q) Returns the measured TGI for the input compound. Input: O=C1c2cccnc2-c2nccc3c2c1nc1ccccc13
A) 2.54

* * *

- Tested on: MDA-MB-435
- procedure.text: NCI tumour cell line growth inhibition, 48 h
test.readout: log10(TGI) (log10 of the value in µM)
Give log10 of TGI, with TGI taken in µM.

Please state, for each entry, its recorded log10(TGI).
1. Clc1ccc(-c2nc(NCc3ccco3)c3ccccc3n2)c(Cl)c1
2. CCCCCCCCN=C(NCCCCCCCC)SCc1cccc2ccccc12
3. COC(=O)c1c2c(cc3c1CC1(Cc4ccccc4C1)C3)CCC2

A)
1: 1.53; 2: 0.48; 3: 1.59

Please state, for each entry, its recorded log10(TGI).
1. COc1ccc(-c2c(-c3ccc(C#N)c(F)c3)nc(N3CCC(N)CC3)n(C)c2=O)cc1F
2. CCC(c1ccccc1)c1cc(C(C)(C)C)cc(C(C)(C)C)c1O (stereo not given)

A)
1. 1.46
2. 1.51

* * *

- Tested on: UO-31 renal
- procedure.text: NCI tumour cell line growth inhibition, 48 h
Give TGI for every item shown.
Give bare numbers, in µM.

Guide cases for TGI, answers given:
Q) Returns the measured TGI for the input compound. Input: O=C(NCCNCCO)c1ccc(Nc2nc3ccccc3c3occc23)cc1
A) 44.9

Q) Returns the measured TGI for the input compound. Input: Cc1[nH]c2cc([N+](=O)[O-])ccc2c1[N+](=O)[O-]
A) 36.2

Q) Returns the measured TGI for the input compound. Input: COC(=O)C12Oc3ccc(-c4ccc5c(c4O)C(O)=C4C(=O)CC(C)C(O)C4(C(=O)OC)O5)c(O)c3C(O)=C1C(=O)CC(C)C2O (stereo not drawn)
A) 0.858

Please state, for each entry, its recorded TGI.
1. COc1cnccc1Nc1nc(-c2nn(Cc3c(F)cc(OCCO)cc3F)c3ccccc23)ncc1OC
2. COc1ccc(/C=C/c2ccnc3ccccc23)cc1OC

A)
1: 8.43; 2: 0.478
